We begin with a simple list: items and their reported IC50.
- Test system: Human primary T cell
- TEST SUMMARY: IL-2 ELISA, human primary T cell, anti-CD3+CD28+ whole cell assay
- Format: cell-based
- EXPERIMENTAL CONTEXT: T-cell; IL-2 by ELISA, human primary T cells stimulated with anti-CD3+CD28

CC1Oc2ccc(Nc3ncc(F)c(NC4CC(C)(C)N(C)C(C)(C)C4)n3)cc2-n2nnnc21 (stereo not shown) [Compound 1-18] :: < 250 nM
CC1(C)CC(Nc2nc(Nc3ccc4c(c3)-n3nnnc3C3(CCC3)O4)ncc2F)CC(C)(C)N1 [Compound 1-11] :: < 250 nM
CN1C(C)(C)CC(CNc2nc(Nc3ccc4c(c3)-n3nnnc3CO4)ncc2F)C1(C)C (stereo not shown) [Compound 2-2] :: < 250 nM

Continue with the compound presented below.
Incoming: Dear colleague, I am looking for the recorded IC50 of the following compound: CN1C(C)(C)CC(Nc2nc(Nc3ccc4c(c3)-n3nnnc3C(F)(F)O4)ncc2F)CC1(C)C [Compound 1-6]
Outgoing: 250 to 500 nM
